assay: Inhibition of gamma secretase-mediated Abeta40 production
For each record, check the reported IC50: if it is below 100 nM write Met, else write Not met.

Answer whether the compound CC(C)S(=O)(=O)CCO[C@@]12COc3c(F)ccc(F)c3[C@]1(S(=O)(=O)c1ccc(Cl)cc1)CCC(=O)C2 has IC50 strictly less than 100 nM
Not met

Field: below-cutoff. Rule: recorded IC50 strictly less than 100 nM. Subject: CNS(=O)(=O)CCO[C@]12CCCC[C@@]1(S(=O)(=O)c1ccc(Cl)cc1)c1c(F)ccc(F)c1OC2
Met

A record lists O=S(=O)(CF)N[C@@H]1CC[C@@]2(S(=O)(=O)c3ccc(Cl)cc3)c3c(F)ccc(F)c3OC[C@@]2(O)C1 . Is its IC50 below 100 nM?
Not met

Lab log: compare recorded IC50 with 100 nM; is it strictly lower for CCS(=O)(=O)CCO[C@@]12COc3c(F)ccc(F)c3[C@]1(S(=O)(=O)c1ccc(Cl)cc1)CCC(=O)C2 ?
Not met

IC50 strictly < 100 nM for this compound? CC(C)S(=O)(=O)CCO[C@@]12COc3c(F)ccc(F)c3[C@]1(S(=O)(=O)c1ccc(Cl)cc1)CCC1(C2)OCCO1
Not met

Is IC50 of CN(C)S(=O)(=O)CCO[C@]12CCCC[C@@]1(S(=O)(=O)c1ccc(Cl)cc1)c1c(F)ccc(F)c1OC2 strictly below 100 nM?
Met

hey, is IC50 for CC(C)S(=O)(=O)CCO[C@]12CCCC[C@@]1(S(=O)(=O)c1ccc(Cl)cc1)c1c(F)ccc(F)c1OC2 lower than 100 nM or not?
Met

For O=C1CC[C@@]2(S(=O)(=O)c3ccc(Cl)cc3)c3c(F)ccc(F)c3OC[C@H]2C1 , is the recorded IC50 below the cut-off of 100 nM?
Met

###

assay: Inhibition of gamma secretase-mediated Abeta40 production
QUANTITY MEASURED: IC50 (nM)
Report only the number, with the unit nM understood.

Consider the compound CS(=O)(=O)NCCO[C@]12CCCC[C@@]1(S(=O)(=O)c1ccc(Cl)cc1)c1c(F)ccc(F)c1OC2 . State its measured IC50.
26

Quick one: give measured IC50 for CS(=O)(=O)CCO[C@]12CCCC[C@@]1(S(=O)(=O)c1ccc(Cl)cc1)c1c(F)ccc(F)c1OC2
9

Supply recorded IC50 for CC(C)S(=O)(=O)CCO[C@@]12COc3c(F)ccc(F)c3[C@]1(S(=O)(=O)c1ccc(Cl)cc1)CC[C@@H](O)C2 here.
52

// fetch IC50 given entry O=S(=O)(N[C@@H]1CC[C@@]2(S(=O)(=O)c3ccc(Cl)cc3)c3c(F)ccc(F)c3OC[C@@]2(O)C1)C(F)(F)F
21

Assign IC50 to the following record: NCCO[C@]12CCCC[C@@]1(S(=O)(=O)c1ccc(Cl)cc1)c1c(F)ccc(F)c1OC2
12

Report IC50, nothing else, for this compound: O=C1CC[C@@]2(S(=O)(=O)c3ccc(Cl)cc3)c3c(F)ccc(F)c3OC[C@@]2(O)C1
21

# return recorded IC50 for entry O=S(=O)(N[C@@H]1CC[C@@]2(S(=O)(=O)c3ccc(C(F)(F)F)cc3)c3c(F)ccc(F)c3OC[C@@]2(O)C1)C1CC1
173

Identify measured IC50 corresponding to O=S(=O)(c1ccc(Cl)cc1)[C@@]12CC[C@@H](O)C[C@]1(O)COc1c(F)ccc(F)c12
28

In one line, give reported IC50 of the entry O=S(=O)(N[C@@H]1CC[C@@]2(S(=O)(=O)c3ccc(Cl)cc3)c3c(F)ccc(F)c3OC[C@@]2(O)C1)C1CC1 .
29
